Target: human FPR2 receptors (Homo sapiens)
Sequence (P25090 1-351): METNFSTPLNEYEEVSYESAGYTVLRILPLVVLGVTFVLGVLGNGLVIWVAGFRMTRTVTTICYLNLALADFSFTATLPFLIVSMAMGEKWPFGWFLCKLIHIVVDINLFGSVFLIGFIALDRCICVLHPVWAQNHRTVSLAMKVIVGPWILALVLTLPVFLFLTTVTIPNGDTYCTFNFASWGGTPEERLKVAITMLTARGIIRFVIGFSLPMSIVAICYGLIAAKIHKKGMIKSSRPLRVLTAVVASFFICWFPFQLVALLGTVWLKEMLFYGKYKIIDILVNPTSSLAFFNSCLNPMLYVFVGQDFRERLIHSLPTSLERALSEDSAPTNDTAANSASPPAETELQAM
Assay: FPR2 cAMP assay in CHO cells overexpressing human FPR2 (HTRF)
Type: cell-based
Settings: hFPR2 assay; potency bins; read-out: hFPR2 agonist activity EC50
# maps each entry to its EC50

Solved entries (count: 3):
COc1cc(F)c([C@@H]2CNC(=O)[C@H]2Nc2nnc(-c3ccc(Oc4ncccc4F)cc3)o2)c(F)c1	40 to 150 nM
COc1cc(F)c([C@@H]2CNC(=O)[C@H]2Nc2nnc(-c3ccc(F)cc3)s2)c(F)c1	40 to 150 nM
COc1cc(F)c([C@@H]2CNC(=O)[C@H]2Nc2nnc(-c3ccc(Cl)cc3)s2)c(F)c1	≤ 40 nM

EC50 in this record for COc1cc(F)c([C@@H]2CNC(=O)[C@H]2Nc2nnc(-c3ccc(Oc4cccc(OC)n4)cc3)o2)c(F)c1 : 150 to 1000 nM

EC50 in this record for COc1cc(F)c([C@@H]2CNC(=O)[C@H]2Nc2nnc(-c3ccc(OC(F)(F)F)cc3)s2)c(F)c1 : 40 to 150 nM

EC50 in this record for COc1cc(F)c([C@@H]2CNC(=O)[C@H]2Nc2nnc(-c3ccc(Oc4cc(Cl)ccn4)cc3)o2)c(F)c1 : ≤ 40 nM

EC50 in this record for COc1cc(F)c([C@@H]2CNC(=O)[C@H]2Nc2nnc(-c3ccc(OC(F)(F)F)cc3)o2)c(F)c1 : 40 to 150 nM

###

# maps each entry to its EC50
target: UniProtKB P25090; experiment: FPR2 cAMP assay in CHO cells overexpressing human FPR2 (HTRF); format: cell-based; conditions: hFPR2 assay; potency bins; read-out: hFPR2 agonist activity EC50

COc1cc(F)c([C@@H]2CNC(=O)[C@H]2Nc2nnc(-c3ccc(Oc4ccc(Cl)cn4)cc3)o2)c(F)c1	≤ 0.04 µM
COc1cc(F)c([C@@H]2CNC(=O)[C@H]2Nc2nnc(C3CC3c3cc(F)cc(F)c3)o2)c(F)c1 (stereo partly shown)	0.04 to 0.15 µM
COc1cc(F)c([C@@H]2CNC(=O)[C@H]2Nc2nc3ccc(Cl)cc3o2)c(F)c1	0.15 to 1 µM

EC50 in this record for COc1cc(F)c([C@@H]2CNC(=O)[C@H]2Nc2nnc(-c3ccc(Cl)cc3F)o2)c(F)c1 : 0.15 to 1 µM

EC50 in this record for COc1cc(F)c([C@@H]2CN(C)C(=O)[C@H]2Nc2nnc(-c3ccc(Cl)cc3)o2)c(F)c1 : ≤ 0.04 µM

EC50 in this record for COc1cc(F)c([C@@H]2CNC(=O)[C@H]2Nc2nnc(-c3ccc(Oc4ccc(F)cn4)cc3)o2)c(F)c1 : 0.04 to 0.15 µM
